Below, each of the compounds is paired with its reported growth inhibition value.
# Test name: NCI Yeast Anticancer Drug Screen. Data for the bub3 strain (AID 167)
# Test context: S. cerevisiae bub3 mutant strain, at 50.0 µM, stronger effect = higher value
Compounds without any hit were thinned out: in the full panel of roughly 79,000, 15% have a hit.
Measured quantity: growth inhibition (%)

[[record]]
compound = "O=C1c2ccccc2C(O)(c2ccc(O)cc2)c2ccccc21"
reported_result = 6.1

[[record]]
compound = "c1ncncn1"
reported_result = 5.25

[[record]]
compound = "Nc1nc(N)c2cc(S(=O)(=O)c3ccc(Cl)cc3)ccc2n1"
reported_result = 17.8

[[record]]
compound = "O=C(O)/C=C/C(=O)Nc1cccc2c1Cc1ccccc1-2"
reported_result = -4.3

[[record]]
compound = "CC1(C)CN(CCO)C(C)(C)CN1CCO"
reported_result = -27.7

[[record]]
compound = "Nc1ccccc1OCOCOc1ccccc1N"
reported_result = -6.3

[[record]]
compound = "Cc1ccc(Nc2nc(=O)[nH]c(=O)[nH]2)cc1N"
reported_result = 27.1

[[record]]
compound = "CC(=O)Nc1cccc2c1C(=O)c1c(c(O)c3ccccc3c1O)C2=O"
reported_result = -8.4

[[record]]
compound = "CC1=NN(c2cccc([N+](=O)[O-])c2)C(=O)C1"
reported_result = 16.8

[[record]]
compound = "COc1cc(C(=O)O)ccc1OS(=O)(=O)O"
reported_result = -11

[[record]]
compound = "O=C(/C=C\\c1ccco1)NC(=O)NC(=O)N1CCCCC1"
reported_result = -9.15

[[record]]
compound = "O=S(=O)(Nc1nc2ccccc2nc1Nc1cccc2ccccc12)c1ccccc1"
reported_result = -10.9

[[record]]
compound = "O=C(O)c1ccccc1C(=O)NCc1ccc(Cl)cc1Cl"
reported_result = 19.9

[[record]]
compound = "C/C(=C\\Cc1cc(O)c(C)cc1O)CC/C=C(\\C)Cc1cc(C)co1"
reported_result = -1.3

[[record]]
compound = "CC(C)(C)[N+](=O)[O-]"
reported_result = 1.4

[[record]]
compound = "Cc1cc(=O)oc2ccccc12"
reported_result = 4.6

[[record]]
compound = "Nc1ccc(NC(=S)Nc2ccccc2)cc1"
reported_result = -7.05

[[record]]
compound = "CCC(O)C1CCCCC1O (configuration not stated)"
reported_result = 15.2

[[record]]
compound = "c1ccc(-c2nn(-c3ccccc3)[n+](-c3ccccc3)n2)cc1"
reported_result = 30.7

[[record]]
compound = "COc1cccc(C2=CCCCCC2)c1OC"
reported_result = -15.9

[[record]]
compound = "COc1cc(C#N)cc(OC)c1"
reported_result = -12.1

[[record]]
compound = "S=C1SC(=Nc2ccccc2)C(=Nc2ccccc2)N1c1ccccc1"
reported_result = -19.5

[[record]]
compound = "COC(=O)CC(C(C(=O)OC)C(=O)OC)N1C(=O)OCC1c1ccccc1 (configuration not stated)"
reported_result = -17.9

[[record]]
compound = "NCCN1CCCCCc2ccccc21"
reported_result = -41.1

[[record]]
compound = "COc1ccc(N(C)S(=O)(=O)c2ccccc2)cc1"
reported_result = 0.1

[[record]]
compound = "CC(C)NC(=O)OCc1nnn2c1CCC2"
reported_result = -0.05

[[record]]
compound = "COc1ccc(Br)cc1C1SCC(=O)N1c1nncs1 (configuration not stated)"
reported_result = 16.4


###

Below, each of the compounds is paired with its reported growth inhibition value.
# Test name: NCI Yeast Anticancer Drug Screen. Data for the rad50 strain (AID 155);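 note: 0% = growth of vehicle-only cultures of the same strain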
# Test context: S. cerevisiae rad50 strain growth inhibition; at 50.0 µM; stronger effect = higher value
The panel holds about 79,000 compounds, 15% with a hit somewhere; the sample as a whole holds those more often.
Measured quantity: growth inhibition (%)

[[record]]
compound = "CC1=C(C(=O)Nc2ccccc2)C(c2ccc(C3C(C(=O)Nc4ccccc4)=C(C)NC(C)=C3C(=O)Nc3ccccc3)cc2)C(C(=O)Nc2ccccc2)=C(C)N1"
reported_result = 70

[[record]]
compound = "O=[N+]([O-])c1cccc(/C=N\\O)c1"
reported_result = -17.8

[[record]]
compound = "CC(=O)c1cccc(NC(=O)N2CCCCC2C)c1 (configuration not stated)"
reported_result = -4.9

[[record]]
compound = "CC(Cc1ccccc1)NC(=O)c1ccncc1 (configuration not stated)"
reported_result = 2.5

[[record]]
compound = "CC1(c2ccc(Cl)cc2)NC(=O)N(CC(=O)Nc2ccccc2)C1=O (configuration not stated)"
reported_result = 7.1

[[record]]
compound = "C1CCN(SN2CCCCC2)CC1"
reported_result = -4.4

[[record]]
compound = "O=C(NC1(C(=O)O)CC1c1ccccc1)c1ccccc1 (configuration not stated)"
reported_result = -1.2

[[record]]
compound = "CNC(=O)NCCCC(NC(C)=O)C(=O)NCc1ccccc1 (configuration not stated)"
reported_result = -19

[[record]]
compound = "CCOC(=O)C(CNCc1ccccc1)C1CCCCC1 (configuration not stated)"
reported_result = 8.65

[[record]]
compound = "O/C=C(\\Cl)CCl"
reported_result = 17.2

[[record]]
compound = "CCC(c1ccc(N(CC)CC)cc1[N+](=O)[O-])c1ccc(N(CC)CC)cc1[N+](=O)[O-]"
reported_result = 29

[[record]]
compound = "O=C(OCc1ccccc1)N1CCCCC1"
reported_result = 7.9

[[record]]
compound = "O=Nc1c(O)[nH]c2c(Cl)cccc12"
reported_result = 0.1

[[record]]
compound = "NNC(=O)CC(=O)Nc1ccc(S(=O)(=O)c2ccc(NC(=O)CC(=O)NN)cc2)cc1"
reported_result = 16.6

[[record]]
compound = "C/C(CC(=O)Nc1ccccn1)=N\\c1ccccn1"
reported_result = 14.2

[[record]]
compound = "CCC(C)CNCCO (configuration not stated)"
reported_result = 24.6

[[record]]
compound = "CC(Cc1ccccc1)NC(=O)C1CC2CCCCN2C1C (configuration not stated)"
reported_result = 4.95

[[record]]
compound = "Cc1cccc(Cl)c1OCC(=O)Nc1ccccc1"
reported_result = 20.9

[[record]]
compound = "Brc1cccc(-c2nnc(-c3ccc4ccccc4c3)o2)c1"
reported_result = -5.85

[[record]]
compound = "CCOC(=O)Oc1ccc(C(=O)Oc2ccccc2)cc1OC"
reported_result = 18.1

[[record]]
compound = "OC(CC1CCCCN1)c1cc2c(Cl)cc(Cl)cc2c2cc(C(F)(F)F)ccc12 (configuration not stated)"
reported_result = 68

[[record]]
compound = "CCN(CC)C(=O)N1CCN(c2ccccc2)CC1"
reported_result = -1.4

[[record]]
compound = "N/N=C(/Cc1ccccc1)NNO"
reported_result = 30.4

[[record]]
compound = "CC1=CCCCC1O (configuration not stated)"
reported_result = -7.15

[[record]]
compound = "S=C(Nc1ccccc1)N1CCN(c2ccccc2Cl)CC1"
reported_result = 10.7

[[record]]
compound = "C=CC(=O)OCCOCCOC"
reported_result = -21.1

[[record]]
compound = "Cc1ccc(-c2c(C#N)c(S)n(NS(=O)(=O)c3ccc(C)cc3)c(=O)c2C#N)cc1"
reported_result = 46.1

[[record]]
compound = "CC(C)CC(C)C"
reported_result = 17.9

[[record]]
compound = "CCOC(=O)C(C(=O)OCC)=c1sc(=C(C(=O)OCC)C(=O)OCC)s1"
reported_result = 20.2

[[record]]
compound = "CC(=O)C1CCCC(=O)/C=C/C(=O)O1 (configuration not stated)"
reported_result = 3.4

[[record]]
compound = "CCOC(=O)c1ccc(N=Nc2c(N)nc(N)nc2N)cc1"
reported_result = -10.4

[[record]]
compound = "COc1n[nH]c(N)n1"
reported_result = 8.3

[[record]]
compound = "O=C(NC[N+]12CCO[B-]1(c1ccccc1)OCC2)c1ccccc1O (configuration not stated)"
reported_result = 25.9

[[record]]
compound = "O=C1CCCC2OC2[C@H]2CCCCCC[C@@H]12 (some centres not stated)"
reported_result = 2.5

[[record]]
compound = "O=[N+]([O-])c1ccc(Oc2c3ccccc3nc3ccccc23)cc1"
reported_result = 11.3

[[record]]
compound = "NC(CCCC(N)C(=O)c1ccccc1)C(=O)c1ccccc1 (configuration not stated)"
reported_result = -13.7

[[record]]
compound = "C#Cc1cccc(N=Cc2cc(Br)cc(OC)c2O)c1"
reported_result = -23.4

[[record]]
compound = "CC(C)NC(=O)N(C(=O)C(F)(F)F)C(C)C"
reported_result = -0.95

[[record]]
compound = "FC(F)(F)C(F)(F)C(F)(F)c1nnnn1-c1ccccc1"
reported_result = 10.8

[[record]]
compound = "COC(=O)C(=O)Cc1nc2ccccc2s1"
reported_result = 6.25

[[record]]
compound = "CC(C)C(C(=O)O)N(CC1(O)OCC(O)C(O)C1O)N=O (configuration not stated)"
reported_result = -0.2

[[record]]
compound = "CCOC(=O)C(=O)C1CCCC1=O (configuration not stated)"
reported_result = -6.9

[[record]]
compound = "CC(C)S(=O)(=O)/C=C(\\I)c1ccccc1"
reported_result = 3.7

[[record]]
compound = "CC(C)(C)OC(=O)NC(CS(=O)(=O)O)C(=O)O (configuration not stated)"
reported_result = -39.1

[[record]]
compound = "COc1ccc(Cl)cc1NC(=O)c1cccc(Cl)c1"
reported_result = 18.8

[[record]]
compound = "CCOC(=O)NC(=S)Nc1cn(C)cc1[N+](=O)[O-]"
reported_result = 3.2

[[record]]
compound = "C1COCCN2CCOCCOCCN(CCO1)CCOCC2"
reported_result = 3.6

[[record]]
compound = "CC1C(c2ccccc2O)c2cc3c(cc2OC1N1CCOCC1)OCO3 (configuration not stated)"
reported_result = -24.9

[[record]]
compound = "O/N=C1\\CCc2nonc2\\C1=N/Nc1ccccc1"
reported_result = -2.05

[[record]]
compound = "CC#CC#C/C=C1/C=CC2(CC=CO2)O1 (configuration not stated)"
reported_result = 1.55

[[record]]
compound = "CCOP(=O)(OCC)C(F)(F)Cc1cnc(C)c2c1COC(C)(C)O2"
reported_result = -14.8

[[record]]
compound = "CC(N)CCN (configuration not stated)"
reported_result = 3.7


These entries and their values trace back to PubChem BioAssay (NCI).
